From: patent US20020137929A1

# Tested on: SAGPY (Arrowhead (Pygmaea))
# test_summary: Postemergence weed control under flooded paddy conditions
# Format: in vivo, Sagittaria pygmaea
# details: Rate 0.1250 kg/ha, postemergence weeds, rated 3 to 4 weeks after treatment
reported_property: Herbicidal rating SAGPY
Give the figure by itself; no unit, no explanation.

Consider the worked cases shown below.
molecule: COC(=O)[C@H](Cc1ccc([N+](=O)[O-])cc1)N1C(=O)CSC1=Nc1cc(-n2c(=O)cc(C(F)(F)F)n(C)c2=O)c(F)cc1Cl
Herbicidal rating SAGPY: 2.0
--
molecule: Cn1c(C(F)(F)F)cc(=O)n(-c2cc(N=C3SCC(=O)N3C3CCOC3=O)c(Cl)cc2F)c1=O (centres unmarked)
Herbicidal rating SAGPY: 3.0
--
molecule: CCOC(=O)CN1C(=O)C(CC(=O)NS(=O)(=O)CC)SC1=Nc1cc(-n2c(=O)cc(C(F)(F)F)n(C)c2=O)c(F)cc1Cl (centres unmarked)
Herbicidal rating SAGPY: 9.0
--
molecule: C=CCN1C(=O)C(CC(=O)OC(C)C(=O)OCC)SC1=Nc1cc(-n2c(=O)ccn(C)c2=O)c(F)cc1Cl (centres unmarked)
Herbicidal rating SAGPY: 5.0

Ask | Test system SAGPY (Arrowhead (Pygmaea)); read-out Herbicidal rating SAGPY; what value for `CCOC(=O)[C@H](C)N1C(=O)CSC1=Nc1cc(-n2c(=O)cc(C(F)(F)F)n(C)c2=O)c(F)cc1Cl` ?
Reply | 4.0
